Values compiled from patent US10323022B2.

pIC50: −log10 of the molar value. Structures can show the parent of a compound that is named as a salt.
pIC50 values recorded for TrkA (Homo sapiens (Human))

Before answering, review these 2 worked examples.
COCCN1C[C@@H](NC(=O)Nc2c(C)c(OCCN3CCN(C)CC3)nn2-c2ccccc2)[C@H](c2ccc(F)c(F)c2)C1 [Example 551, trihydrochloride]	> 7.00
COCCN1C[C@@H](NC(=O)Nc2c(Br)c(-c3cnn(C)c3)nn2-c2ccccc2)[C@H](c2ccc(F)cc2)C1 [Example 421]	> 7.00

Answer for every listed entry: what is its pIC50? The entries follow.
1. CCOc1nn(-c2ccccc2)c(NC(=O)N[C@@H]2CN(CCOC)C[C@H]2c2ccc(F)c(F)c2)c1Cl [Example 356]
2. COCCN1C[C@@H](NC(=O)Nc2c(C(N)=O)c(C)nn2-c2ccccc2)[C@H](c2ccc(Cl)c(F)c2)C1 (relative stereo) [Example 624]

> 7.00
> 7.00

Provide the reported pIC50 of each entry below, same order.
1. CCOc1nn(-c2ccccc2)c(NC(=O)N[C@@H]2CN(CCOC)C[C@H]2c2cc(F)cc(F)c2)c1CO [Example 464]
2. COCCN1C[C@@H](NC(=O)Nc2c(Cl)c(OC[C@@H](C)O)nn2-c2ccccc2)[C@H](c2ccc(F)cc2)C1 [Example 374]

["> 7.00", "> 7.00"]

====

biological target: UniProt P04629
measured-quantity: IC50

// known answers, use as guide
CCOc1nn(-c2ccccc2)c(NC(=O)N[C@@H]2CN(CCOC)C[C@H]2c2ccc(F)c(F)c2)c1CCO	< 100 nM
Cc1c(-c2cnc(N)nc2)nn(-c2ccccc2)c1NC(=O)N[C@H]1CN(CC(F)(F)F)C[C@@H]1c1ccccc1 [Example 522, bis(2,2,2-trifluoroacetate)]	< 100 nM
COCCN1C[C@@H](NC(=O)Nc2c(C)c(-c3nc(C(F)(F)F)no3)nn2-c2ccccc2)[C@H](c2ccc(F)cc2)C1	< 100 nM
COCCN1C[C@@H](NC(=O)Nc2cc(-c3ccc(CO)cc3)nn2C)[C@H](c2ccc(F)c(F)c2)C1	< 100 nM
COCCN1C[C@@H](NC(=O)Nc2c(C)c(C)nn2-c2ccccc2)[C@H](c2ccc(F)cc2)C1	< 100 nM
COCCN1C[C@@H](NC(=O)Nc2c(-c3ccccc3)c(C)nn2C)[C@H](c2ccc(F)c(F)c2)C1	< 100 nM

Give IC50 for all compounds that follow.
1. COCCN1C[C@@H](NC(=O)Nc2c3c(nn2-c2ccccc2)CCC3)[C@H](c2cncc(F)c2)C1 (relative stereo) [Example 341]
2. COCCN1C[C@@H](NC(=O)Nc2c(C)c(-c3ccc(=O)n(C)c3)nn2-c2ccccc2)[C@H](c2ccc(F)c(F)c2)C1
3. CCn1nc(-c2ccccc2)cc1NC(=O)N[C@@H]1CN(CCOC)C[C@H]1c1ccccc1 (relative stereo)
4. COCCN1C[C@@H](NC(=O)Nc2c3c(nn2-c2cccc(F)c2)CCC3)[C@H](c2ccccc2)C1 (relative stereo)
5. COCCN1C[C@@H](NC(=O)Nc2c(C)c(OC(=O)N3CCOCC3)nn2-c2ccccc2)[C@H](c2ccc(F)c(F)c2)C1

1: 100 to 1000 nM; 2: < 100 nM; 3: 100 to 1000 nM; 4: < 100 nM; 5: < 100 nM

Batch: IC50 for all items listed.
1. COCCN1C[C@@H](NC(=O)Nc2c(C)c(OC[C@@H]3COC(C)(C)O3)nn2-c2ccccc2)[C@H](c2cc(F)cc(F)c2)C1
2. COCCN1C[C@@H](NC(=O)Nc2c(C)c(OCCN3C(=O)c4ccccc4C3=O)nn2-c2ccccc2)[C@H](c2ccc(F)c(F)c2)C1

1. < 100 nM
2. < 100 nM
